// provenance: ChEMBL document CHEMBL3632462

tested on: Plasmodium falciparum; test: Antiparasitic activity against erythrocytic stage of Plasmodium falciparum NF54 assessed as growth inhibition after 48 hrs by [3H]-hypoxanthine incorporation assay; assay type: functional, organism-based
pIC50: −log10 of the molar value.
Reported Property: pIC50

>>> data_value("CCOc1ccc(OCc2ccc(C(=O)N3CCCC(C)C3)cc2)cc1 (stereo unspecified)")
4.65

====

assay: Selectivity index, ratio of IC50 for rat L6 cells to IC50 for bloodstream form of Trypanosoma brucei rhodesiense STIB900; format: toxicity, cell-based; settings: read-out: Ratio IC50
Reported Property: selectivity ratio

>>> data_value("CCOc1ccc(OCc2ccc(C(=O)N3CCCC(C)C3)cc2)cc1 (stereo unspecified)")
190

====

assay: Selectivity index, ratio of IC50 for HEK293 cells to IC50 for Trypanosoma brucei brucei infected in HEK293 cells; format: toxicity, cell-based; settings: human, read-out: Ratio IC50
Reported selectivity ratio values for a set of molecules
Reported Property: selectivity ratio

>>> data_value("CCOc1ccc(OCc2ccc(C(=O)N3CCOCC3)cc2)cc1")
20
>>> data_value("COc1ccc(OCc2ccc(C(=O)N(C)c3ccccc3)cc2)cc1")
5
>>> data_value("CCc1ccc(OCc2ccc(C(=O)N3CCOCC3)cc2)cc1")
6
>>> data_value("CCOc1ccc(OCCCCCC(=O)N2CCCCC2)cc1")
5
>>> data_value("CCOc1ccc(OCc2ccc(C(=O)N3CCCC(C)C3)cc2)cc1 (stereo not given)")
36
